Target: T1, 4H464-AA
T1 chain: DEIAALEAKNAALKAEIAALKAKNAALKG
Experiment: two-hybrid library CCmax;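 further: natural log of median RNA to DNA barcode read ratio; higher means stronger binding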
Details: mean of both orientations
Label rule, in plain words: interaction score of 0.4 and up is Satisfied, under 0.4 is Not satisfied.

{"binder": "DEIAALEAKIAALKAENAALEAKIAALEG [4H341-AA]", "labelClass": "Not satisfied"}

Prompt line: Form field: interaction score at least 0.4? Entry: DENAALEAKNAALEAKIAALKAKIAALKG [4H1454-AA]
Response line: Not satisfied

Prompt line: Form field: interaction score at least 0.4? Entry: DENAALKAEIAALEAENAALEAKIAALKG [4H1558-AA]
Response line: Satisfied

Prompt line: Form field: interaction score at least 0.4? Entry: DKNAALKAENAALKAEIAALEAKIAALKG [4H3782-AA]
Response line: Not satisfied

meta.source: paper PMC10397247
